Test system: PC-3
Assay: Antiproliferative activity against human PC3 prostate carcinoma cells by MTS assay
Format: functional
Exercise: state measured GI50 for each of the molecules provided.
# unit: µM | format: bare number

Incoming: Item: COc1ccc(CCNC(=O)/C(Cc2cc(Cl)cc(Cl)c2OCCCN)=N\O)cc1 Test system: PC-3 Read-out: GI50 Value: ?
Outgoing: 32

Incoming: Same again, this time with NCCCOc1ccc(C/C(=N/O)C(=O)NCCc2ccc(Cl)cc2)cc1Br
Outgoing: 33

Incoming: Another molecule to look at: NCCCOc1ccc(C/C(=N/O)C(=O)NCCc2ccccc2)cc1Br
Outgoing: 31
